# ASSAY_SYSTEM: UGT1A9 (Homo sapiens, UniProt O60656)
# Sequence (O60656 26-530): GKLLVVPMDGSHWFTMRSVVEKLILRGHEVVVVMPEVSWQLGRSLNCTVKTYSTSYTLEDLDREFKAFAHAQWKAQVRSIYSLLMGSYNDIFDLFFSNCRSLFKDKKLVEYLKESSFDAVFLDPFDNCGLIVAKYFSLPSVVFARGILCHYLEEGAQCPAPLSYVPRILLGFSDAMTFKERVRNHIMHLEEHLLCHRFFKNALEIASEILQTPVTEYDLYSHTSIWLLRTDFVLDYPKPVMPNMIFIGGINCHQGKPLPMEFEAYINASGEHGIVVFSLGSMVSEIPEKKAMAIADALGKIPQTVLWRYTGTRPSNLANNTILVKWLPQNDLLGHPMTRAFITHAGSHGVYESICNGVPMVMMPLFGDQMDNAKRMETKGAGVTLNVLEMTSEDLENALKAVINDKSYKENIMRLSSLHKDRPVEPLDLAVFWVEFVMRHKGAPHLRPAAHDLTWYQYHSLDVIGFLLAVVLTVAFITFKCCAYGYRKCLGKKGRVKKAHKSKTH
# ASSAY_METHOD_TEXT: UGT1A9 supersomes-catalyzed 4-MU glucuronidation inhibition
# DETAILS: 50 μM LPC components; recombinant human UGT; mean of triplicate
QUANTITY_MEASURED: residual activity 1A9 (%)
Record the value in %, omitting the unit from your answer.

- COMPOUND: "CCCCCCCCCCCC(=O)OC[C@@H](O)COP(=O)([O-])OCC[N+](C)(C)C [LPC 12:0]"
  ASSAY_SYSTEM: "UGT1A9 (Homo sapiens, UniProt O60656)"
  residual activity 1A9, %: 89.2
- COMPOUND: "CCCCCC(=O)OC[C@@H](O)COP(=O)([O-])OCC[N+](C)(C)C [LPC 6:0]"
  ASSAY_SYSTEM: "UGT1A9 (Homo sapiens, UniProt O60656)"
  residual activity 1A9, %: 95.9
- COMPOUND: "CCCCCCCC(=O)OCC(O)COP(=O)([O-])OCC[N+](C)(C)C (stereo not shown) [LPC 8:0]"
  ASSAY_SYSTEM: "UGT1A9 (Homo sapiens, UniProt O60656)"
  residual activity 1A9, %: 99.6
- COMPOUND: "CCCCCCCCC(=O)OC[C@@H](O)COP(=O)([O-])OCC[N+](C)(C)C [LPC 9:0]"
  ASSAY_SYSTEM: "UGT1A9 (Homo sapiens, UniProt O60656)"
  residual activity 1A9, %: 94.5
- COMPOUND: "CCCCCCCCCCCCCCCCC(=O)OC[C@@H](O)COP(=O)([O-])OCC[N+](C)(C)C [LPC 17:0]"
  ASSAY_SYSTEM: "UGT1A9 (Homo sapiens, UniProt O60656)"
  residual activity 1A9, %: 87.5

Entry CCCCCCCCCCCCCC(=O)OC[C@@H](O)COP(=O)([O-])OCC[N+](C)(C)C [LPC 14:0] , UGT1A9 (Homo sapiens, UniProt O60656) data, residual activity 1A9 value: 97.5

// assay UGT1A9 (Homo sapiens, UniProt O60656), entry CCCCCCCCCCC(=O)OC[C@@H](O)COP(=O)([O-])OCC[N+](C)(C)C [LPC 11:0] , residual activity 1A9 value = 104.6

====

# ASSAY_SYSTEM: UGT1A8 (Homo sapiens, UniProt Q9HAW9)
# Sequence (Q9HAW9 26-530): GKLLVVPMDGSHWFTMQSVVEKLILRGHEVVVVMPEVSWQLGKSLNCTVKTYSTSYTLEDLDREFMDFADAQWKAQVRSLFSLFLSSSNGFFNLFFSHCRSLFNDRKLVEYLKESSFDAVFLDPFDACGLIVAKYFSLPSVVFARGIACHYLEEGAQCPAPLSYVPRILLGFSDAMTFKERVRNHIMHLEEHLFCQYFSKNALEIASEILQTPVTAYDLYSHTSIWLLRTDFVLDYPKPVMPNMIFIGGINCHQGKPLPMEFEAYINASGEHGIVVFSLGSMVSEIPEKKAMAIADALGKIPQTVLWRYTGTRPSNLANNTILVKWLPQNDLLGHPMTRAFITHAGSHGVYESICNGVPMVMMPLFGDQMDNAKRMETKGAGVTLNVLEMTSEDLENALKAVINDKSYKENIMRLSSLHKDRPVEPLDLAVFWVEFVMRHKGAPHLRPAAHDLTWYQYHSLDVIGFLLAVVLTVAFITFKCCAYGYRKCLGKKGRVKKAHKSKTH
# DETAILS: 50 μM PC components; recombinant human UGT; mean of triplicate
QUANTITY_MEASURED: residual activity 1A8 (%)
Report the figure in % without appending any unit label.

The compound CCCCCCCCCCCCCCCCCCCCCC(=O)OC[C@H](COP(=O)([O-])OCC[N+](C)(C)C)OC(=O)CCCCCCCCCCCCCCCCCCCCC [PC 22:0, 22:0] showed residual activity 1A8 equal to 38.0

GET /value?item= CCCCCCCCCCCC(=O)OC[C@H](COP(=O)([O-])OCC[N+](C)(C)C)OC(=O)CCCCCCCCCCC [PC 12:0, 12:0] &field=residual activity 1A8 returns 114.1

The compound CCCCCCCCCCCCCCCCCC(=O)OC[C@H](COP(=O)([O-])OCC[N+](C)(C)C)OC(=O)CCCCCCCCCCCCCCCCC [PC 18:0, 18:0] showed residual activity 1A8 equal to 84.1

====

# ASSAY_SYSTEM: UGT2B4 (Homo sapiens, UniProt P06133)
# Sequence (P06133 24-528): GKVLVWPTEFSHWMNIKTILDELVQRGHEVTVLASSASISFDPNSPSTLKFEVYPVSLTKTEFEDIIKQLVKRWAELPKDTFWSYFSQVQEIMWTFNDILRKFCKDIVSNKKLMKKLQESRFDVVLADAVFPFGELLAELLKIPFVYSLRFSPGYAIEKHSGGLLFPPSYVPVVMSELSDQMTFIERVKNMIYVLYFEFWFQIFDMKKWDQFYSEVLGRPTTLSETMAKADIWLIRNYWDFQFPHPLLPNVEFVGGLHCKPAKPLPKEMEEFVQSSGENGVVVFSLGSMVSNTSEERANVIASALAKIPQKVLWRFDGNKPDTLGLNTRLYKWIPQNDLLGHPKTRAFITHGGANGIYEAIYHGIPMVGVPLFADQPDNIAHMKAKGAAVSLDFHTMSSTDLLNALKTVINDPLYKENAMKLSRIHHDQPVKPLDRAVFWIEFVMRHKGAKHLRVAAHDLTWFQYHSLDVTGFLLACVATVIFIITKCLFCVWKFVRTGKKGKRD
# ASSAY_METHOD_TEXT: UGT2B4 supersomes-catalyzed 4-MU glucuronidation inhibition
# DETAILS: 50 μM PC components; recombinant human UGT; mean of triplicate
A collection of compounds and their measured residual activity 2B4
Write down the numeric answer in % and omit the unit.

For the compound CCCCCCCCCC(=O)OC[C@H](COP(=O)([O-])OCC[N+](C)(C)C)OC(=O)CCCCCCCCC [PC 10:0, 10:0] , the measured residual activity 2B4 on UGT2B4 (Homo sapiens, UniProt P06133) was 168.4

Form field, residual activity 2B4 with UGT2B4 (Homo sapiens, UniProt P06133), item CCCCCCC(=O)OC[C@H](COP(=O)([O-])OCC[N+](C)(C)C)OC(=O)CCCCCC [PC 7:0, 7:0] : 186.9

Entry CCCCCC(=O)OC[C@H](COP(=O)([O-])OCC[N+](C)(C)C)OC(=O)CCCCC [PC 6:0, 6:0] , tested on UGT2B4 (Homo sapiens, UniProt P06133), has a reported residual activity 2B4 of 178.7

So the reported residual activity 2B4 for CC/C=C\C/C=C\C/C=C\C/C=C\C/C=C\C/C=C\CCC(=O)O[C@H](COC(=O)CCCCCCCCCCCCCCCCC)COP(=O)([O-])OCC[N+](C)(C)C [PC 18:0, 22:6] , on UGT2B4 (Homo sapiens, UniProt P06133), turned out to be 183.2

Recorded residual activity 2B4 for CCCCCCCCC(=O)OC[C@H](COP(=O)([O-])OCC[N+](C)(C)C)OC(=O)CCCCCCCC [PC 9:0, 9:0] on UGT2B4 (Homo sapiens, UniProt P06133) was 156.7

Entry CCCCCCCCCCCCCCC(=O)OC[C@H](COP(=O)([O-])OCC[N+](C)(C)C)OC(=O)CCCCCCCCCCCCCC [PC 15:0, 15:0] ; assay system UGT2B4 (Homo sapiens, UniProt P06133); residual activity 2B4 recorded at 191.3

Field residual activity 2B4 (system: UGT2B4 (Homo sapiens, UniProt P06133)) for entry CCCCCCCCCCCCCCCCCCCCC(=O)OC[C@H](COP(=O)([O-])OCC[N+](C)(C)C)OC(=O)CCCCCCCCCCCCCCCCCCCC [PC 21:0, 21:0] = 80.3

Bench note, UGT2B4 (Homo sapiens, UniProt P06133): CCCCCCCCCCCCC(=O)OC[C@H](COP(=O)([O-])OCC[N+](C)(C)C)OC(=O)CCCCCCCCCCCC [PC 13:0, 13:0] , residual activity 2B4 reads 193.8

====

Listed molecules paired with reported residual activity 1A8
# ASSAY_SYSTEM: UGT1A8 (Homo sapiens)
# DETAILS: 50 μM PC components; recombinant human UGT; mean of triplicate

Example entries begin here.
- MOLECULE: "CCCCCCCCCC(=O)OC[C@H](COP(=O)([O-])OCC[N+](C)(C)C)OC(=O)CCCCCCCCC [PC 10:0, 10:0]"
  ASSAY_SYSTEM: "UGT1A8 (Homo sapiens)"
  residual activity 1A8: "59.3%"
- MOLECULE: "CCCCCCCCCCC(=O)OC[C@H](COP(=O)([O-])OCC[N+](C)(C)C)OC(=O)CCCCCCCCCC [PC 11:0, 11:0]"
  ASSAY_SYSTEM: "UGT1A8 (Homo sapiens)"
  residual activity 1A8: "116.8%"

Next:
Param item: CCCCCC(=O)OC[C@H](COP(=O)([O-])OCC[N+](C)(C)C)OC(=O)CCCCC [PC 6:0, 6:0] ; param system: UGT1A8 (Homo sapiens); output residual activity 1A8: 116.2%
